As an illustration, consider measured AC50 for molecules on Cytochrome P450 2C9 (Homo sapiens, UniProt P11712).
Sequence (P11712 whole entry): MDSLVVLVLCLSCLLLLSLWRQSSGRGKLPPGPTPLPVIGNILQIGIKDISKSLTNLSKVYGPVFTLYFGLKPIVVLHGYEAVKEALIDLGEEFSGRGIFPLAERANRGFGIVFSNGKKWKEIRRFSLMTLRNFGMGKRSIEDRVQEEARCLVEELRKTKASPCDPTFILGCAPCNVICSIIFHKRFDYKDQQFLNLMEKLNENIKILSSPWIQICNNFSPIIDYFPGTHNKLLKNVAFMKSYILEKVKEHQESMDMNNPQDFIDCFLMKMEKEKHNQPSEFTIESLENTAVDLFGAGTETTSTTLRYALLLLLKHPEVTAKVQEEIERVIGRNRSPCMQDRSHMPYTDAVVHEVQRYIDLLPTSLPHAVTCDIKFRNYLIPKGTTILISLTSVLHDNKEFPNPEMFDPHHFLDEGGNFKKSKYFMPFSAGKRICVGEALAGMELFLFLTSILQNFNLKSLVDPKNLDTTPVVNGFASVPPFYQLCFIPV
Measured Parameter: AC50

C=CCN=C(S)Nc1ccc2nc(C)c(C)nc2c1; 12.6 µM (inconclusive)
COc1ccc(NC(=O)C2c3cc(OC)c(OC)cc3C(=O)N(C)C2c2cccnc2)cc1OC (stereo not drawn); 17.8 µM (inconclusive)
COc1ccc(Nc2cc(C(=O)NCCCN3CCN(C)CC3)c3ccccc3n2)cc1; 14.1 µM (inconclusive)
